Measured response vs control in vivo at 20.6 mg/kg accompanies every entry in the list below.
Experiment: Effect on energy expenditure of mice
Type: in vivo, Female CFLP mice
Conditions: Mus musculus, po, 21 h, read-out: Mean Energy Expenditure (0-21 h)
Counter-ions that a name gives are not always drawn.
Value kind: response vs control in vivo at 20.6 mg/kg (%)

Compound | Readout value
COC(=O)COc1ccc(CC(C)NCC(OC)c2ccccc2)cc1 (stereo not shown) [Example 10, hydrochloride monohydrate] | 114
CNC(=O)COc1ccc(CC(C)NCC(OC)c2ccccc2F)cc1 (stereo not shown) [Example 55, hydrochloride] | 121
CCOC(CNC(C)Cc1ccc(C(=O)NC)cc1)c1cccc(Cl)c1 (stereo not shown) [Example 34, hydrochloride] | 116
COC(=O)Cc1ccc(CC(C)NCC(OC)c2cccc(Cl)c2)cc1 (stereo not shown) [Example 49, hydrochloride] | 135

###

Test system: blood glucose
Assay: Hypoglycaemic activity: reduction in area under blood glucose curve after glucose load
Format: in vivo, Female CFLP mice
Settings: Mus musculus, po, 2 h, read-out: % Reduction in area under Blood Glucose Curve
Where a name gives a salt, the structure may show the parent alone.

Compound | Display unit | inhibition in vivo at 2.5 µmol/kg
CNC(=O)COc1ccc(CC(C)NCC(OC)c2cccc(C(F)(F)F)c2)cc1 (stereo not drawn) [Example 7, hydrochloride] | % | 32
COC(CNC(C)Cc1ccc(OCCOc2ccccc2)cc1)c1cccc(Cl)c1 (stereo not drawn) [Example 57, hydrochloride] | % | 28
COC(=O)COc1ccc(CC(C)NCC(OCc2ccccc2)c2cccc(Cl)c2)cc1 (stereo not drawn) [Example 50, hydrochloride] | % | 41
COC(=O)COc1ccc(CC(C)NCC(OC(C)C)c2cccc(Cl)c2)cc1 (stereo not drawn) [Example 26, hydrochloride] | % | 45
COC(=O)COc1ccc(CC(C)NCC(OC)c2cc3ccccc3o2)cc1 (stereo not drawn) [Example 36, hydrochloride] | % | 30
CNCCOc1ccc(CC(C)NCC(OC)c2ccccc2)cc1 (stereo not drawn) [Example 13, dihydrochloride] | % | 21
